- assay: NCI Yeast Anticancer Drug Screen. Data for the rad18 strain (AID 177)
- appliedConditions: S. cerevisiae rad18 mutant growth inhibition; at 1.2 µM; active compounds read high
Compounds without any hit were thinned out: in the full panel of roughly 79,000, 15% have a hit.
measuredAttribute: growth inhibition (%)
Field format: number, assumed %, no unit text.

Record excerpt, results attached:
compound	growth inhibition [%]
COc1ccccc1C(=O)OCC1CCCN2CCCCC12 (stereo not given)	-5
CCC/C(Cl)=N\OC(=O)Nc1ccc(Br)cc1	71
c1ccc(-c2ccnc3c2ccc2c(-c4ccccc4)ccnc23)cc1	9
CC1CCN(CCC(=O)c2ccc(Cl)cc2)CC1	5

For the next question, use this compound.
INPUT: Given O=Nc1cccnc1N=O , state its recorded growth inhibition.
OUTPUT: 35

Reference source for all entries: PubChem BioAssay (NCI)
